- assay_protocol: Metabolic stability in rat liver microsomes assessed as parent compound remaining after 10 mins
- Assay type: ADME, microsome
- experimental_conditions: read-out: Stability
Let's look at some molecules and their measured remaining at 10 min.
Answer format: numeric, % implied, no suffix.

Use the examples below as a reference point.
| chem_smiles | remaining at 10 min / % |
| --- | --- |
| COc1cnc(-n2cc(C)nn2)c2[nH]cc(C(=O)C(=O)N3CCN(C(=O)c4ccccc4)[C@H](C)C3)c12 | 76 |
| CCc1ncn(-c2ncc(OC)c3c(C(=O)C(=O)N4CCN(C(=O)c5ccccc5)[C@H](C)C4)c[nH]c23)n1 | 90 |
| COc1cnc(-n2ccc(CO)n2)c2[nH]cc(C(=O)C(=O)N3CCN(C(=O)c4ccccc4)[C@H](C)C3)c12 | 90 |
| COc1cnc(-n2ccc(N)n2)c2[nH]cc(C(=O)C(=O)N3CCN(C(=O)c4ccccc4)[C@H](C)C3)c12 | 91 |
| COc1cnc(-n2cncn2)c2[nH]cc(C(=O)C(=O)N3CCN(C(=O)c4ccccc4)[C@H](C)C3)c12 | 95 |

Query: Specify reported remaining at 10 min for the molecule shown: COc1cnc(-n2ncnc2C)c2[nH]cc(C(=O)C(=O)N3CCN(C(=O)c4ccccc4)CC3)c12
Reply: 95

Query: Specify reported remaining at 10 min for the molecule shown: COc1cnc(-n2nccc2C)c2[nH]cc(C(=O)C(=O)N3CCN(C(=O)c4ccccc4)CC3)c12
Reply: 100

* * *

- assay_protocol: Permeability in human Caco2 cells
- Format: ADME, cell-based
- experimental_conditions: Caco-2, read-out: permeability
Let's look at some compounds and their measured Papp.
Answer format: numeric, ×10⁻⁶ cm/s implied, no suffix.

| chem_smiles | unit_abbrev | readout_number |
| --- | --- | --- |
| COc1cnc(-c2cccc(C)n2)c2[nH]cc(C(=O)C(=O)N3CCN(C(=O)c4ccccc4)CC3)c12 | ×10⁻⁶ cm/s | 13.4 |
| COc1cnc(-c2cnc(N)cn2)c2[nH]cc(C(=O)C(=O)N3CCN(C(=O)c4ccccc4)CC3)c12 | ×10⁻⁶ cm/s | 3.3 |
| COc1cnc(-c2cccc(N)n2)c2[nH]cc(C(=O)C(=O)N3CCN(C(=O)c4ccccc4)CC3)c12 | ×10⁻⁶ cm/s | 6.6 |

Query: Specify reported Papp for the compound shown: COc1cnc(-c2ccoc2)c2[nH]cc(C(=O)C(=O)N3CCN(C(=O)c4ccccc4)CC3)c12
Reply: 4.6

Query: Specify reported Papp for the compound shown: COc1cnc(-n2ccc(C)n2)c2[nH]cc(C(=O)C(=O)N3CCN(C(=O)c4ccccc4)CC3)c12
Reply: 26

Query: Specify reported Papp for the compound shown: COc1cnc(-c2cncc(=O)[nH]2)c2[nH]cc(C(=O)C(=O)N3CCN(C(=O)c4ccccc4)CC3)c12
Reply: 6.6

* * *

Let's look at some compounds and their measured remaining at 10 min.
- assay_protocol: Metabolic stability in human liver microsomes assessed as parent compound remaining after 10 mins
- Assay type: ADME, microsome
- experimental_conditions: read-out: Stability
Provide a numeric answer, followed by its unit.

Use the examples below as a reference point.
| chem_smiles | remaining at 10 min |
| --- | --- |
| COc1cnc(-n2ccc(C)n2)c2[nH]cc(C(=O)C(=O)N3CCN(C(=O)c4ccccc4)CC3)c12 | 80% |
| COc1cnc(-n2nccc2C)c2[nH]cc(C(=O)C(=O)N3CCN(C(=O)c4ccccc4)CC3)c12 | 94% |
| COc1cnc(-n2cc(C)nn2)c2[nH]cc(C(=O)C(=O)N3CCN(C(=O)c4ccccc4)[C@H](C)C3)c12 | 74% |
| COc1cnc(-n2cnc(N3CCOCC3)n2)c2[nH]cc(C(=O)C(=O)N3CCN(C(=O)c4ccccc4)CC3)c12 | 64% |
| COc1cnc(-n2cnc(N)n2)c2[nH]cc(C(=O)C(=O)N3CCN(C(=O)c4ccccc4)[C@H](C)C3)c12 | 95% |
| COc1cnc(-n2cc(C)nn2)c2[nH]cc(C(=O)C(=O)N3CCN(C(=O)c4ccccc4)CC3)c12 | 94% |
| CCNC(=O)c1ncn(-c2ncc(OC)c3c(C(=O)C(=O)N4CCN(C(=O)c5ccccc5)CC4)c[nH]c23)n1 | 97% |
| COc1cnc(-n2ccc(N)n2)c2[nH]cc(C(=O)C(=O)N3CCN(C(=O)c4ccccc4)[C@H](C)C3)c12 | 92% |
| COc1cnc(-n2ncnc2C)c2[nH]cc(C(=O)C(=O)N3CCN(C(=O)c4ccccc4)CC3)c12 | 99% |
| COc1cnc(-n2ccc(C)n2)c2[nH]cc(C(=O)C(=O)N3CCN(C(=O)c4ccccc4)[C@H](C)C3)c12 | 72% |

Query: Specify reported remaining at 10 min for the compound shown: COc1cnc(-n2nccc2N)c2[nH]cc(C(=O)C(=O)N3CCN(C(=O)c4ccccc4)[C@H](C)C3)c12
Reply: 68%

Query: Specify reported remaining at 10 min for the compound shown: COc1cnc(-c2cnccn2)c2[nH]cc(C(=O)C(=O)N3CCN(C(=O)c4ccccn4)[C@H](C)C3)c12
Reply: 95%

Query: Specify reported remaining at 10 min for the compound shown: CCc1ncn(-c2ncc(OC)c3c(C(=O)C(=O)N4CCN(C(=O)c5ccccc5)CC4)c[nH]c23)n1
Reply: 100%

Query: Specify reported remaining at 10 min for the compound shown: COc1cnc(-n2cnc(C)n2)c2[nH]cc(C(=O)C(=O)N3CCN(C(=O)c4ccccc4)[C@H](C)C3)c12
Reply: 94%

Query: Specify reported remaining at 10 min for the compound shown: COc1cnc(-n2cc(F)cn2)c2[nH]cc(C(=O)C(=O)N3CCN(C(=O)c4ccccc4)CC3)c12
Reply: 77%

Query: Specify reported remaining at 10 min for the compound shown: COc1cnc(-n2ccc(CO)n2)c2[nH]cc(C(=O)C(=O)N3CCN(C(=O)c4ccccc4)[C@H](C)C3)c12
Reply: 81%
